tested on: STK16; conditions: concentration: 1 μM, replicates: in singlicate; n = 1
Recorded %Inh determines the label; the label ranges are small value: < 6%; mid value: ≥ 6% and < 20%; large value: ≥ 20%

Take a look at these entries with their results.
Cc1ccccc1COc1cc(-n2cnc3cc(Cl)ccc32)sc1C(N)=O [GW813349]: small value
COc1cc(Nc2nccc(N3CCC(NC(=O)C(C)c4ccc(Cl)cc4)C3)n2)cc(OC)c1OC (stereo not shown) [GSK1379757]: large value

Exam item: assign COc1cccc(C2=C(N(C)c3ccccc3)C(=O)NC2=O)c1 [SB-334865] to the correct category. large value

Which bin, given its %Inh, does OCCCNc1nccc(-c2c(-c3cccc(C(F)(F)F)c3)nn3cc(C(F)(F)F)ccc23)n1 [GW630813] occupy? mid value

Lab log: Cl.NS(=O)(=O)c1cccc(Nc2cc(-c3ccc(F)cc3)n[nH]2)c1 [GW824645] — assign %Inh category mid value

Form: Item = COC(=O)c1c(-c2ccccc2)c2cc(Br)ccc2c(=O)n1Cc1ccc(NC(=O)CCC(=O)O)cc1 ; Class = ? mid value

Note: place this compound into its band. Item: Cc1nnc(-c2ccc(C)c(-c3ccc(C(=O)O)cc3)c2)o1 [GW608005] small value

Lab note: which band did CCc1ccc(-c2ccc3c(c2)-c2nn(C)cc2S(=O)(=O)N3C)cc1 land in? small value

GET /class?item= COc1ccc(Nc2nccc(N3CCC(NS(=O)(=O)c4ccc(NC(C)=O)cc4)C3)n2)cc1 (stereo not shown) [GSK1379729] mid value

Lab note: which band did Nc1n[nH]c2nnc(-c3ccccc3)c(-c3ccccc3)c12 [GW554060] land in? large value

* * *

test system: HIPK1; conditions: concentration: 1 μM, replicates: in singlicate; n = 1
For each of the compounds below, state its %Inh.
Enter the number, and then the unit.

Worked examples follow.
COc1ccc(-c2cc3c(C)nc(N)nc3n([C@H]3CC[C@H](O)CC3)c2=O)cn1: 0%
Cc1cc(Nc2nc(-c3cccc(C)n3)nc3ccccc23)ccn1 [GW872411]: 0%
Cc1ccccc1COc1cc(-n2cnc3cc(Cl)ccc32)sc1C(N)=O [GW813349]: 30%
COc1ccc(-c2coc3ccc(-c4nnc(SCc5cccc(C#N)c5)o4)cc23)cc1: 32%

Batch request: %Inh per item, same order as input.
1. Cc1ccc(-c2ccc3c(ccc4sc5c(c43)NC[C@@H](C)N=C5N(C)C)n2)cn1
2. COc1cc2ncn(-c3cc(OCCCc4ccccc4)c(C(N)=O)s3)c2cc1OC [GSK205189]
3. CCn1c(-c2nonc2N)nc2ccccc21 [SB-693162/GW549034]
4. Nc1nc(-c2ccccc2F)c(-c2ccnc3ccccc23)s1 [GW560459]
5. C[C@@H]1CC[C@H](C(=O)NC2CCCCC2)CN1c1cc(-c2ccc3c(N)n[nH]c3c2)nc(N)n1 [GSK2291363]

["0%", "9%", "29%", "0%", "9%"]

State recorded %Inh for all listed compounds.
1. Nc1ncnc2c1ncn2-c1cccc2ccccc12 [SKF-97184]
2. Cc1c(Cn2c(C)nn3c(=O)cc(N4CCO[C@H](C)C4)nc23)cccc1C(F)(F)F [GSK2373690]
3. COc1cccc(C2=C(N(C)c3ccccc3)C(=O)NC2=O)c1 [SB-334865]
4. CCc1ccc(-c2ccc3c(c2)-c2nn(C)cc2S(=O)(=O)N3C)cc1
5. O=C(Nc1n[nH]c2cc(-c3ccccc3F)ccc12)C1CC1 [SB-733371]

1: 34%; 2: 13%; 3: 0%; 4: 0%; 5: 2%

* * *

tested on: MYLK4; conditions: concentration: 1 μM, replicates: in singlicate; n = 1
MEASUREMENT NAME: %Inh (%)
Numbers only, in %.

Nc1nc(N)c2nc(-c3ccccc3)[nH]c2n1: 1
Cc1cccc(-c2nc(Nc3ccc4c(cnn4C)c3)c3ccccc3n2)n1: 33
COC(=O)c1c(-c2ccccc2)c2cc(Br)ccc2c(=O)n1Cc1ccc(NC(=O)CCC(=O)O)cc1: 1
COc1ccc(-c2cc3c(C)nc(N)nc3n([C@H]3CC[C@H](OCCO)CC3)c2=O)cn1: 7
COc1ccc(Nc2nccc(N3CCC(NS(=O)(=O)c4ccc(NC(C)=O)cc4)C3)n2)cc1 (centres unmarked): 1

Below are 3 compounds. Give each one its %Inh.
1. Cc1ccc(-c2ccc3c(ccc4sc5c(c43)NC[C@@H](C)N=C5N(C)C)n2)cn1
2. C[C@@H]1CC[C@H](C(=O)NC2CCCCC2)CN1c1cc(-c2ccc3c(N)n[nH]c3c2)nc(N)n1
3. Fc1cccc(CSc2nnc(-c3ccc4c(c3)CCO4)o2)c1

1. 100
2. 23
3. 0

* * *

For each entry below, report its %Inh value.
tested on: TIE2; construct: gene TEK; conditions: concentration: 1 μM, replicates: in singlicate; n = 1
Numbers only, in %.

CCC(=O)c1c(-c2ccccc2)c2cc(Cl)ccc2c(=O)n1Cc1cc(S(C)(=O)=O)n(CCC(C)(C)O)n1: 5
O=C(NCCNc1ccnc(Nc2ccc(F)cc2)n1)Nc1ccc2c(c1)OCO2: 0
Cc1c(Cn2c(C)nn3c(=O)cc(N4CCO[C@H](C)C4)nc23)cccc1C(F)(F)F: 0

Continue with the next molecule.
The reported %Inh of the molecule Cc1ccccc1COc1cc(-n2cnc3cc(Cl)ccc32)sc1C(N)=O was 0

* * *

Please respond with reported %Inh for every item in the list.
system: EIF2AK1; details: concentration: 1 μM, replicates: in singlicate; n = 1
One number for each entry, in %.

Required: %Inh, one value per compound below.
1. CCC(=O)c1c(-c2ccccc2)c2cc(Cl)ccc2c(=O)n1Cc1cc(S(C)(=O)=O)n(CC(N)=O)n1
2. Cc1nnc(-c2ccc3ncn(-c4ccc(S(C)=O)cc4)c3c2)o1 (stereo not shown)
3. Nc1ncnc2c1ncn2-c1cccc(F)c1
4. COc1ccc(CNC(=O)NC2CCN(c3ccnc(Nc4ccc(F)cc4)n3)C2)cc1 (stereo not shown)
5. COc1cc2nccc(Nc3ccc(OCc4ccc(NC(C)=O)cc4)cc3)c2cc1OC.Cl
6. Nc1nccc2scc(-c3ccc4c(c3)CCN4C(=O)Cc3ccccc3)c12
7. CCc1ccc(-c2ccc3c(c2)-c2nn(C)cc2S(=O)(=O)N3C)cc1

1: 0; 2: 0; 3: 28; 4: 0; 5: 17; 6: 0; 7: 0

Look at each compound and report its %Inh.
1. COc1cc2nccc(Nc3cccc(Oc4ccccc4)c3)c2cc1OC.Cl
2. Cc1c(Cn2c(C)nn3c(=O)cc(N4CCO[C@H](C)C4)nc23)cccc1C(F)(F)F
3. Nc1ncnc2c1ncn2-c1ccc(Cl)cc1
4. COc1cc2ncn(-c3cc(OCc4ccc(S(C)(=O)=O)cc4)c(C(N)=O)s3)c2cc1OC
5. Cc1nc(N(C)[C@H]2CN(C(=O)CC#N)CC[C@H]2C)c2cc[nH]c2n1
6. O=C(Nc1n[nH]c2nc(-c3ccccc3)c(Cl)cc12)C1CC1

1: 0; 2: 0; 3: 0; 4: 7; 5: 0; 6: 18

* * *

tested on: JNK2; construct: gene MAPK9;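 note: kd values determined as follow-up on hits from a single-replicate KINOMEscan panel screen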
pKd: −log10 of the molar value.
Quick rule for you: pKd at 7 or higher means criterion met, lower means criterion not met.

Worked set:
Nc1nc(-c2ccccc2F)c(-c2ccnc3ccccc23)s1 [GW560459]: criterion not met
CCC(=O)c1c(-c2ccccc2)c2cc(Cl)ccc2c(=O)n1Cc1cc(C(=O)NC2CC2)n(C)n1: criterion met

# ---- query molecule ----
Tell me whether pKd is at least 7 here: COC(=O)c1c(-c2ccccc2)c2cc(Br)ccc2c(=O)n1Cc1ccc(S(C)(=O)=O)cc1 criterion not met

* * *

test system: NEK2; details: concentration: 1 μM, replicates: in singlicate; n = 1
MEASUREMENT NAME: %Inh (%)
One number for each entry, in %.

For orientation, consider the following solved cases.
Cc1nc(N(C)[C@H]2CN(C(=O)CC#N)CC[C@H]2C)c2cc[nH]c2n1: 0
Cc1ccc(Oc2ccc(Nc3ncnc4cc[nH]c34)cc2C)cn1: 2
O=C(NCCNc1ccnc(Nc2ccc(F)cc2)n1)Nc1ccc2c(c1)OCO2: 7
O=C(Nc1n[nH]c2nc(-c3ccccc3)c(Cl)cc12)C1CC1: 0

For every record below, what is its %Inh?
1. Cn1c(=O)c(F)c(Nc2ccc(I)cc2F)c2c(=O)n(OC[C@H](O)CO)cnc21
2. COc1ccc(Nc2nccc(N3CCC(NS(=O)(=O)c4ccc(NC(C)=O)cc4)C3)n2)cc1 (stereo not drawn)
3. Nc1ncnc2c1ncn2-c1ccc(Cl)cc1
4. CCc1ccc(-c2ccc3c(c2)-c2nn(C)cc2S(=O)(=O)N3C)cc1
5. COc1cc(OC)cc(-c2cc3cnc(N)nc3nc2NC(=O)NC(C)(C)C)c1

14
8
0
0
3
